Tested on: Tetrahymena pyriformis
Test: 48 h IGC50 (-log10 mol/L); higher = more toxic
Give TRUE when the value for 48 h IGC50 (-log10 mol/L) is at least 3. Give FALSE when it is less.

                          compound          assayed_target  label_class
0  CC(C)C(N)CO (centres undefined)  Tetrahymena pyriformis        FALSE
1                   CC(=O)OCCCCCBr  Tetrahymena pyriformis         TRUE

**Q:** // inclusive: 48 h IGC50 (-log10 mol/L) at least 3? input: C#CC(O)CCCC (centres undefined)
**A:** FALSE

**Q:** Next record, please: "C#CCNC"
**A:** FALSE

**Q:** Next compound up: "CCOC(=O)C(NC(C)=O)C(=O)OCC"
**A:** FALSE

**Q:** Also need "CC(C)c1ccccc1" , thanks.
**A:** TRUE

**Q:** Now the same for "O=C(O)CCCC(=O)O"
**A:** FALSE
